system: SDMA in HCT116-MTAP-knockout cell line; assay: Cell symmetric dimethylarginine (SDMA) test, In-cell Western, HCT116-MTAP-knockout; assay type: cell-based; settings: Homo sapiens, 96 h, IC50 score class, read-out: Cell 96 h SDMA Inhibition (HCT116-MTAP−/−) (score)
pIC50: −log10 of the molar value.
assayReadout: pIC50

Solved cases below.
1. Cc1cc(-n2c(=O)c3nn(C)cc3c3ccc(Cl)cc32)n(C)n1 [Compound B175]
6.00 to 6.70
2. Cn1cc2c(n1)c(=O)n(-c1ccnn1C)c1cc(Cl)ccc21 [Compound B58]
6.00 to 6.70
3. O=c1c2nn(C(F)F)cc2c2cc(F)c(Cl)cc2n1-c1cccnc1C(F)(F)F [Compound B339]
6.00 to 6.70
4. Cn1cc2c(n1)c(=O)n(-c1ccccc1)c1nc(C(F)(F)F)ccc21 [Compound B177]
6.00 to 6.70

Each molecule below has a reported value. Please supply its pIC50.
1. CCn1cc2c(n1)c(=O)n(-c1cnccn1)c1cc(Cl)ccc21 [Compound B6]
2. Cn1cc2c(n1)c(=O)n(-c1cccnc1)c1nc(C3CC3)ccc21 [Compound B71]

*A*
< 5.52
6.00 to 6.70

Each molecule below has a reported value. Please supply its pIC50.
1. Cn1ccc(Cn2cc3c(n2)c(=O)n(-c2cccnc2)c2cc(Cl)ccc32)n1 [Compound B48]
2. Cn1cc2c(n1)c(=O)n(-c1ccc(F)c(O)c1)c1nc(C(F)(F)F)ccc21 [Compound B228]
3. O=c1c2nn(C(F)F)cc2c2cc(F)c(Cl)cc2n1-c1cccc2[nH]ncc12 [Compound B260]
4. Cc1c2c(nn1C)c(=O)n(-c1cccnc1)c1nc(C(F)(F)F)ccc21 [Compound B198]
5. CCn1cc2c(n1)c(=O)n(-c1cnccc1C)c1cc(Cl)ccc21 [Compound B51]
6. Cn1cc2c(n1)c(=O)n(-c1cccnc1)c1cc(OC(F)(F)F)ccc21 [Compound B78]
7. O=c1c2nn(Cc3cccnc3)cc2c2ccc(Cl)cc2n1-c1cccnc1 [Compound B47]

*A*
1: > 6.70; 2: 5.52 to 6.00; 3: > 6.70; 4: > 6.70; 5: < 5.52; 6: 6.00 to 6.70; 7: > 6.70

====

test system: SDMA in human colon cancer cell line HCT116; assay: Cell symmetric dimethylarginine (SDMA) test, In-cell Western, HCT116 (MTAP wild-type); type: cell-based; settings: Homo sapiens, HCT-116, 96 h, IC50 score class, read-out: Cell 96 h SDMA Inhibition (HCT116-MTAP+/+) (score)
assayReadout: IC50

1. CN1CCN(c2nccc(Cn3cc4c(n3)c(=O)n(-c3cccc5[nH]ncc35)c3cc(Cl)c(F)cc43)n2)CC1 [Compound B333]
> 3000 nM
2. Cn1cc2c(n1)c(=O)n(-c1cccnc1)c1nc(C(F)(F)F)ccc21 [Compound B72]
200 to 1000 nM
3. O=c1c2nn(C3CC3)cc2c2ccc(C(F)(F)F)nc2n1-c1cccc2[nH]ncc12 [Compound B250]
> 3000 nM

The record that follows has no IC50 shown yet.
Field IC50 (SDMA in human colon cancer cell line HCT116), entry Cc1[nH]nc2c(=O)n(-c3cccnc3)c3nc(C(F)(F)F)ccc3c12 [Compound B216] : 200 to 1000 nM
